tested on: S. aureus ATCC 13709; assay: MIC, antibacterial potency, S. aureus; assay type: cell-based; conditions: S. aureus (SA); in µg/mL
measure: MIC, SA

// solved cases for MIC, SA follow
# compound, test target, quantitative readout
data = [
    ("CCc1[nH]c2nc(Oc3ccc4nccnc4c3)nc(C)c2c1Cl", "S. aureus ATCC 13709", 1),
    ("CCc1[nH]c2nc(Sc3ccc4ccc(C(=O)O)nc4c3)nc(N3CC(NS(C)(=O)=O)C3)c2c1Cl", "S. aureus ATCC 13709", 8),
    ("CCc1[nH]c2nc(Oc3cncnc3)nc(N3CC4CNC4C3)c2c1Cl (stereo not drawn)", "S. aureus ATCC 13709", 4),
    ("CCc1[nH]c2nc(Sc3cnc(N)nc3)nc(N3CC4C(C3)C4(N)C(N)=O)c2c1Cl (stereo not drawn)", "S. aureus ATCC 13709", 2),
    ("CCc1[nH]c2nc(Oc3cccnc3)nc(N3CC4C(N)C4C3)c2c1Cl (stereo not drawn)", "S. aureus ATCC 13709", 4),
    ("CCc1[nH]c2nc(Oc3cccc(C#N)c3)nc(C3CC3)c2c1Cl", "S. aureus ATCC 13709", 2),
    ("CCc1[nH]c2nc(Sc3cnc4cccnc4c3)nc(N3CC(C(=O)N4CC(N)C4)C3)c2c1Cl", "S. aureus ATCC 13709", 8),
    ("CCc1[nH]c2nc(Sc3ccc4nc(C)nc(N5CC6CNC6C5)c4c3)nc(N3CC[C@@H](N)C3)c2c1Cl (stereo partly drawn)", "S. aureus ATCC 13709", 64),
    ("CCc1[nH]c2nc(Sc3cnc4c(=N)n(CCCN5CCC(N)C5)c(C)nc4c3)nc(N3CC[C@@H](N)C3)c2c1Cl (stereo partly drawn)", "S. aureus ATCC 13709", 32),
    ("CCc1[nH]c2nc(N3CCN(c4cc(C(=O)O)nc5ccc(Cl)cc45)CC3)ncc2c1Cl", "S. aureus ATCC 13709", 8),
]

1: N[C@@H]1CCN(c2nc(Sc3cnc4ccc[n+]([O-])c4c3)nc3[nH]c(C4CC4)c(Cl)c23)C1
2: CCc1[nH]c2nc(Sc3cnc4cccnc4c3)nc(N3CCC(N)(C(=O)N[C@H](CO)C(=O)OC)C3)c2c1Cl (stereo partly drawn)
3: CCc1[nH]c2nc(Oc3cncc(C#N)c3)nc(N3CC[C@@H](NC(C)=O)C3)c2c1Cl
Input line: Sequence the entries by MIC, SA, beginning with the highest number. Write out the labels following the order that was asked for.
Output line: 2, 1, 3

---

test system: S. aureus ATCC 13709; assay: MIC, antibacterial potency, S. aureus; assay type: cell-based; settings: S. aureus (SA); in µg/mL
measure: MIC, SA

// solved cases for MIC, SA follow
# molecule, MIC, SA
data = [
    ("CCc1[nH]c2nc(Oc3cncnc3)nc(N(C)C)c2c1Br", 1),
    ("CCc1[nH]c2nc(Sc3cc(C(=O)O)c4cnccc4c3)nc(N3CC[C@@H](N)C3)c2c1Cl", 8),
]

1: CCc1[nH]c2nc(Sc3cnc(N)nc3)nc(N3CC4CCNC4C3)c2c1Cl (centres unmarked)
2: CCc1[nH]c2nc(Sc3ccc(/C=C/C(=O)O)c(F)c3)nc(N3CC[C@@H](N)C3)c2c1Cl
3: CCc1[nH]c2nc(Sc3cc(Cl)c4c(N)nc(C)nc4c3)nc(N3CC[C@@H](N)C3)c2c1Cl
Input line: Hi! Can you put these in order of MIC, SA, lowest number first? Write out the labels following the order that was asked for.
Output line: 3, 2, 1
(3: 1, 2: 4, 1: 8)

---

system: S. pneumoniae ATCC 51916; assay: MIC, S. pneumoniae; type: cell-based; settings: S. pneumoniae
measure: MIC Spn52 (µg/mL)

# smiles string, MIC Spn52 / µg/mL
measured = [
    ("CCc1[nH]c2nc(Sc3cnc4nccnc4c3)nc(N3CC[C@H](NC)C3)c2c1Cl.O=C(O)C(F)(F)F", 4),
]

1: CCc1[nH]c2nc(Sc3cnc4cccnc4c3)nc(N3CC[C@H](O)[C@H]3CO)c2c1Cl
2: CCc1[nH]c2nc(Sc3cnc4nccnc4c3)nc(-n3ccnc3)c2c1Cl
Input line: Which value of MIC Spn52 is greater, the one for 1 or the one for 2 ? // output: label of the selected item
Output line: 2

---

test system: S. aureus ATCC 13709; test: MIC, antibacterial potency, S. aureus; type: cell-based; settings: S. aureus (SA); in µg/mL
measure: MIC, SA

// solved cases for MIC, SA follow
# compound, test target, result
measured = [
    ("CCc1[nH]c2nc(Sc3ccc4c(N5CC[C@@H](N)C5)cc(C)nc4c3)nc(N3CC[C@@H](N)C3)c2c1Cl [700,843]", "S. aureus ATCC 13709", 64),
    ("CCc1[nH]c2nc(Sc3ccc4[nH]cc(C#N)c(=O)c4c3)nc(N3CC[C@@H](N)C3)c2c1Cl [700,919]", "S. aureus ATCC 13709", ">64"),
    ("CCc1[nH]c2nc(Oc3ccc4cccnc4c3)nc(Oc3ccc4cccnc4c3)c2c1Br [701,054]", "S. aureus ATCC 13709", "<=0.5"),
    ("CCc1[nH]c2nc(Sc3cncc(S(=O)(=O)N(C)C)c3)nc(N3CC4C(N)C4C3)c2c1C (centres unmarked) [701,183]", "S. aureus ATCC 13709", 16),
    ("CCc1[nH]c2nc(Sc3ccc4c(OC)cc[n+]([O-])c4c3)nc(N3CC[C@@H](N)C3)c2c1Cl [701,040]", "S. aureus ATCC 13709", "<=0.5"),
    ("CCc1[nH]c2nc(Oc3ccc[n+]([O-])c3)nc(Oc3ccc4nccnc4c3)c2c1Br [701,091]", "S. aureus ATCC 13709", "<=0.5"),
    ("CCc1[nH]c2nc(Sc3cnc4ccc[n+]([O-])c4c3)nc(N(C)CCNC)c2c1Cl [701,037]", "S. aureus ATCC 13709", 8),
]

Next compound, please.
Input line: Entry CCc1[nH]c2nc(Oc3ccc4c(c3)ncc[n+]4[O-])nc(Oc3ccc4c(c3)ncc[n+]4[O-])c2c1Br [701,058] has what MIC, SA?
Output line: <=0.5

---

test system: S. aureus ATCC 13709; assay: MIC, antibacterial potency, S. aureus; type: cell-based; settings: S. aureus (SA); in µg/mL
measure: MIC, SA

# smiles string, MIC, SA
data = [
    ("CCc1[nH]c2nc(Oc3cncc(OC)c3)nc(N3CC(O)C3)c2c1Cl", 4),
    ("CCc1[nH]c2nc(Sc3ccc4c(N5CC(N)C5)ncnc4c3)nc(N3CC[C@@H](N)C3)c2c1Cl", 16),
]

P: CCc1[nH]c2nc(Sc3cnc4c(=N)n(CC5OCCO5)c(C)nc4c3)nc(N3CC[C@@H](N)C3)c2c1Cl
Q: CCc1[nH]c2nc(Sc3ccc4nccnc4c3)nc(N3CCC4(CCNCC4)C3)c2c1Cl
Input line: Which value of MIC, SA is greater, the one for P or the one for Q ? // output: label of the selected item
Output line: Q

---

tested on: S. pneumoniae ATCC 51916; experiment: MIC, S. pneumoniae; format: cell-based; conditions: S. pneumoniae
measure: MIC Spn52 (µg/mL)

# compound, quantitative readout
rows = [
    ("CCc1[nH]c2nc(Sc3cnc4nccnc4c3)nc(N3CC(CNC(=O)COCCOCCOC)C3)c2c1Cl", 4),
    ("CCc1[nH]c2nc(Oc3cccnc3)nc(Oc3cccnc3)c2c1Cl.O=C(O)C(F)(F)F", 4),
]

1: CCc1[nH]c2nc(Sc3cnc4cccnc4c3)nc(N3CC(NC)C3)c2c1Cl
2: CCc1[nH]c2nc(Sc3cnc4nccnc4c3)nc(Oc3cccnc3)c2c1Cl
Input line: Which entry shows the lesser value of MIC Spn52 here, 1 or 2 ? // output: label of the selected item
Output line: 1

1: CCOc1nc(Cc2cccnc2)nc2[nH]c(CC)c(Cl)c12
2: CCc1[nH]c2nc(Sc3cnc4nccnc4c3)nc(N3CCC[C@H]3CO)c2c1Cl
3: CCOc1nc(Sc2cc(C(=O)O)ccn2)nc2[nH]c(CC)c(Cl)c12
4: CCc1[nH]c2nc(Sc3ccc4c(N5CC(N)C5)ncnc4c3)nc(N3CCC(N)C3)c2c1Cl (centres unmarked)
Input line: Sequence the entries by MIC Spn52, beginning with the highest number. Write out the labels following the order that was asked for.
Output line: 3, 4, 1, 2

A: CCc1[nH]c2nc(Sc3cnc4sc(NC(C)=O)nc4c3)nc(N3CC(N)C3)c2c1Br
B: CCCn1c(=O)cc(Sc2nc(N3CC(O)C3)c3c(Br)c(CC)[nH]c3n2)[nH]c1=O
Input line: Which entry shows the lesser value of MIC Spn52 here, A or B ? // output: label of the selected item
Output line: B
(B: 1 µg/mL, A: 8 µg/mL)
